# Tested on: IL-2
# protocol: PHA-IL2 (cell activation and cytokine analysis)
# Type: cell-based
# assay.conditions: 50% inhibition concentration class
// IC50 lookup, one value per entry
experimental.readout: IC50

compound | tgt | obs.value
CCOc1ccccc1-c1ccccc1OCC(=O)N1CCC(CCc2ccc3c(c2)OCO3)CC1 | IL-2 | < 1000 nM
CC(C)Oc1cccc(CCC2CCN(C(=O)COc3ccc(C#N)cc3-c3ccc(F)cc3O)CC2)c1 | IL-2 | < 1000 nM
CC1Oc2ccc(CCC3CCN(C(=O)COc4ccccc4-c4ccc(F)cc4)CC3)cc2OC1C (stereo not drawn) | IL-2 | < 1000 nM
O=C(COc1ccccc1-c1ccccc1)N1CCC(CCc2ccc3c(c2)OCCO3)CC1 | IL-2 | < 1000 nM
O=C(COc1ccccc1-c1ccc2[nH]ncc2c1)N1CCC(CCc2ccc3c(c2)OCCO3)CC1 | IL-2 | < 1000 nM
O=C(COc1ccccc1-c1ccc(F)cc1O)N1CCC(CCc2ccccc2)CC1 | IL-2 | < 1000 nM
O=C(COc1ccccc1-c1ccccc1)N1CCC(CCc2cc(F)c(O)c(F)c2)CC1 | IL-2 | < 1000 nM
N#Cc1ccc(-c2ncccc2OCC(=O)N2CCC(CCc3ccc4c(c3)OCO4)CC2)cc1 | IL-2 | 1000 to 10000 nM
CC1CC(CCc2ccccc2)CCN1C(=O)COc1ccccc1-c1ccc(C#N)cc1 (stereo not drawn) | IL-2 | < 1000 nM
O=C(COc1ccccc1-c1ccc(C(F)(F)F)cc1)N1CCC(CCc2ccc3c(c2)OCO3)CC1 | IL-2 | < 1000 nM
O=C1COc2ccc(CCC3CCN(C(=O)COc4ccccc4-c4ccc(Cl)nc4)CC3)cc2N1 | IL-2 | < 1000 nM
COc1cccc(CCC2CCN(C(=O)COc3cccnc3-c3ccc(F)cc3O)CC2)c1 | IL-2 | < 1000 nM
O=C(COc1ccc(C(F)(F)F)cc1-c1ccc(F)cc1O)N1CCC(CCc2cccc(OCCN3CCOCC3)c2)CC1 | IL-2 | 1000 to 10000 nM
CC(C)Oc1ccccc1CCC1CCN(C(=O)COc2ccccc2-c2ccc(F)cc2O)CC1 | IL-2 | < 1000 nM
CC(C)COc1cccc(-c2ccccc2OCC(=O)N2CCC(CCc3ccc4c(c3)OCO4)CC2)c1 | IL-2 | 1000 to 10000 nM
O=C(COc1ccccc1-c1cccc(Cl)c1)N1CCC(CCc2ccc3c(c2)OCO3)CC1 | IL-2 | < 1000 nM
CC(C)Oc1ccccc1CCC1CCN(C(=O)COc2ccccc2-c2ccc(C#N)cc2)CC1 | IL-2 | < 1000 nM
O=C(NCCO)c1cccc(-c2ccccc2OCC(=O)N2CCC(CCc3ccc4c(c3)OCO4)CC2)c1 | IL-2 | 10000 to 50000 nM
O=C(COc1ccccc1-c1ccc2[nH]cnc2c1)N1CCC(CCc2ccc(O)cc2)CC1 | IL-2 | 1000 to 10000 nM
Cc1cc2c(cc1CCC1CCN(C(=O)COc3ccccc3-c3ccc(C#N)cc3)CC1)OCO2 | IL-2 | < 1000 nM
CCc1ccc(-c2ccccc2OCC(=O)N2CCC(CCc3ccc4c(c3)OCO4)CC2)cc1 | IL-2 | 1000 to 10000 nM
CN(C)CCCOc1ccc(-c2ccccc2OCC(=O)N2CCC(CCc3ccc4c(c3)OCO4)CC2)cn1 | IL-2 | 10000 to 50000 nM
CN1CC(NC(=O)c2ccc(OCC(=O)N3CCC(CCc4ccccc4)CC3)c(-c3ccc(C#N)cc3)c2)C1 | IL-2 | 1000 to 10000 nM
O=C(COc1ccccc1-c1ccc(F)cc1O)N1CCC(CCc2ccc(F)c(C(F)(F)F)c2)CC1 | IL-2 | 1000 to 10000 nM
O=C(COc1ccccc1-c1ccc2[nH]cnc2c1)N1CCC(CCc2ccccc2)CC1 | IL-2 | 1000 to 10000 nM
O=C(COc1cccnc1-c1ccc(F)cc1O)N1CCC(CCc2ccc(OCCN3CCOCC3)cc2)CC1 | IL-2 | 1000 to 10000 nM
CC(C)Oc1cccc(CCC2CCN(C(=O)COc3ccccc3-c3ccc(C#N)cc3OCc3ccccc3)CC2)c1 | IL-2 | < 1000 nM
